- System: V79
- Protocol details: In vitro concentration required to kill hypoxic cells V79-379A cells
- Assay type: functional, Cricetulus griseus
Kindly supply the reported C50 values for the records listed here.

Record Cc1c(CO)c2c(n1C)C(=O)C=C(N1C(C)C1C)C2=O (stereo unspecified) ; system V79; C50 = 14.2 µM

Response field C50 (V79) for item Cn1c2c(c(CO)c1C1CCCCC1)C(=O)C(N1CC1)=CC2=O : 0.93 µM

C50 value, target or system V79, for Cc1c(CO)c2c(n1C)C(=O)C=C(NCC(C)(C)O)C2=O : 500 µM

# C50 measured on V79 for item Cc1c(CO)c2c(n1C)C(=O)C=C(N1CC1C)C2=O (stereo unspecified) = 0.5 µM

The compound COC1=CC(=O)c2c(c(COC(N)=O)c(C(C)C)n2C)C1=O , tested on V79, showed C50 of 0.117 µM

// returns C50 for Cc1c(CO)c2c(n1C)C(=O)C=C(N1CC1)C2=O with V79; value = 0.0116 µM

Given the compound Cn1cc(COC(N)=O)c2c1C(=O)C=C(N1CC1)C2=O and test system V79, the measured C50 is 0.00013 µM

C50 of CO[C@@]12[C@H](COC(N)=O)C3=C(C(=O)C(C)=C(N)C3=O)N1C[C@@H]1N[C@@H]12 , assay on V79, is 0.4 µM

Result for COC1=CC(=O)c2c(c(CO)c(C(C)C)n2C)C1=O , tested on V79, C50: 200 µM

Case COC1=CC(=O)c2c(c(C)c(C(C)C)n2C)C1=O , V79, C50 recorded as 0.657 µM

Measured C50 (V79), entry COC1=CC(=O)c2c(c(COC(N)=O)c(C3CC3)n2C)C1=O : 0.44 µM

----------
- Protocol details: Hypoxic cytotoxic ratios of the concentration required to kill 50% of the aerobic cells and concentration required to kill hypoxic cells
- Assay type: cell-based, Cricetulus griseus
- Condition: chinese hamster, V79 cells; read-out: HCR
Provide the reported selectivity ratio of each item.
Give the value as a plain number.

Lab note: measured selectivity ratio of COC1=CC(=O)c2c(c(CO)c(C3CCCCC3)n2C)C1=O was 6

For COC1=CC(=O)c2c(c(COC(N)=O)c(C(C)C)n2C)C1=O the molecule record lists selectivity ratio as 179

// Cn1cc(COC(N)=O)c2c1C(=O)C=C(N1CC1)C2=O : selectivity ratio value = 1.46

Form: molecule = CC(C)c1c(COC(N)=O)c2c(n1C)C(=O)C=C(N1CC1)C2=O ; selectivity ratio = 8.7

// selectivity ratio lookup, molecule = COC1=CC(=O)c2c(c(CO)c3n2CC2CC32)C1=O (stereo not given) , result: 1.8

The reported selectivity ratio of the molecule COC1=CC(=O)c2c(c(CO)c(C3CC3)n2C)C1=O was 0.65

The recorded selectivity ratio for COC(=O)c1c2c(n(C)c1C1CC1)C(=O)C=C(OC)C2=O is 1.7

selectivity ratio for Cn1c(/C=C/CO)c(CO)c2c1C(=O)C=C(N1CC1)C2=O is 50.3

The recorded selectivity ratio for COC(=O)c1c2c(n(C)c1C(C)C)C(=O)C=C(OC)C2=O is 1

Value of measured selectivity ratio for the entry Cc1c(CO)c2c(n1C)C(=O)C=C(N1C(C)C1C)C2=O (stereo not given) : 14.2

Record summary for Cn1c2c(c(COC(N)=O)c1C1CC1)C(=O)C(N1CC1)=CC2=O : reported selectivity ratio = 45

Looking up CC1CN1C1=CC(=O)c2c(c(COC(N)=O)c(C3CC3)n2C)C1=O (stereo not given) , I found its selectivity ratio recorded as 27.2

// selectivity ratio value for COC(=O)c1c2c(n(C)c1C1CC1)C(=O)C=C(N1CC1)C2=O : 1.8

Looking up Cc1c(CO)c2c(n1C)C(=O)C=C(N1CC1C)C2=O (stereo not given) , I see its selectivity ratio listed as 188

Item: COC1=CC(=O)c2c(c(CO)cn2C)C1=O | selectivity ratio: 0.92

Entry COC1=CC(=O)c2c(c(COC(N)=O)c(C3CC3)n2C)C1=O , selectivity ratio reported as 65.9

Reported selectivity ratio ( CC(C)c1c(CO)c2c(n1C)C(=O)C=C(N1CC1)C2=O ) = 32.5

In plain terms, COC1=CC(=O)c2c(c(CO)c(C(C)C)n2C)C1=O has a documented selectivity ratio of 4

Input Cn1cc(CO)c2c1C(=O)C=C(N1CC1)C2=O . Output selectivity ratio: 15.4

The reported value for COC1=CC(=O)c2c(c(CO)c(C)n2C)C1=O in terms of selectivity ratio is 3.78

The recorded selectivity ratio for entry Cn1c2c(c(CO)c1C1CCCCC1)C(=O)C(N1CC1)=CC2=O equals 37

Per the records, this molecule ( CC(C)c1c(CO)c2c(n1C)C(=O)C=C(N1CC1C)C2=O (stereo not given) ) has selectivity ratio equal to 9.2

// field: selectivity ratio; key: CC1CN1C1=CC(=O)c2c(c(CO)c(C3CC3)n2C)C1=O (stereo not given) ; value = 23.4

Data point: Cc1c(CO)c2c(n1C)C(=O)C=C(N1CC1)C2=O ; selectivity ratio = 12.8

Item: Cn1c2c(c(CO)c1C1CC1)C(=O)C(N1CC1)=CC2=O | selectivity ratio: 104

Query O=C1C(N2CC2)=CC(=O)c2c1c(CO)c1n2CC2CC12 (stereo not given) yields selectivity ratio of 13.2

GET /value?item= Cc1c(CO)c2c(n1C)C(=O)C=C(NCC(C)(C)O)C2=O &field=selectivity ratio returns 2.5

# selectivity ratio of COC1=CC(=O)c2c(c(COC(N)=O)cn2C)C1=O = 83.8

selectivity ratio in this record for CC(C)c1c(COC(N)=O)c2c(n1C)C(=O)C=C(N1CC1C)C2=O (stereo not given) : 23.7

Please fill in: selectivity ratio reported for COC1=CC(=O)c2c(c(C)c(C(C)C)n2C)C1=O = 1.88
